Experiment: AUC in rat at 10 mg/kg, po
Format: ADME, organism-based
Parameters: dose 10 mg/kg, route po
Settings: in vivo
EXPERIMENTAL_READOUT: AUC (µM·h)

In [3]: df
Out[3]:
                              sample_smiles  experimental_readout  result_number
0  O=C1O[C@]2(CCN(C(=O)C3(c4ccc(Cl)cc4)CC3)C2)c2ccccc21                   AUC           2.62
1  O=C1O[C@]2(CCN(C(=O)C3(c4ccc(Cl)cc4)CC3)C2)c2ccncc21                   AUC           1.86
